Some sequences, each annotated with its measured apparent KD of K4 kissing-loop reporter.
# Test system: K4 kissing-loop RNA reporter
# assay.info: apparent KD of K4 kissing-loop reporter; higher = weaker reporter binding
# experimental.setup: Eterna round: R107; input ligand: theophylline 20 uM
// note: answer is a bare numeric in nM

{"seq": "UGUGUUUACCUGACUCAGUGAUGUUGAGAAGGAGCGUGCUAAAGCACAGGUAGGUCGCUCAACCUAAAUUCAGGUGAGCACUAAA", "unit.annotation": "nM", "apparent KD of K4 kissing-loop reporter": 326}
{"seq": "AGGGAUGAUGGAUAAAUAAACAAAAGGGAUACCAGUCAAAUAAUAGGCCCUUGGCAGCUUUAGAUCAGUGAUGUUGAAGAUAUUG [Theophylline A Same State; Euphoria Solution]", "unit.annotation": "nM", "apparent KD of K4 kissing-loop reporter": 159}
{"seq": "AUUAAUUUCAGAGGAUAUCGUUAUUUUUUAUAUUUUAUUCAUUUAUGCAGUGAUGUUGCUAUUAUUCGAGAAGGCUGAUUUAUAA [JR_ExcFMNB_Sub004]", "unit.annotation": "nM", "apparent KD of K4 kissing-loop reporter": 100}
{"seq": "AACGUUUUGAGAAGGAGCGCGUUCAGCAGUGAUGUUGCUUUACUUCAAUUUCUAGAUAAUUCGCAGGUAGGUCGCUCAAUACGUA [JR_Nu_ExcArginiB_Sub023]", "unit.annotation": "nM", "apparent KD of K4 kissing-loop reporter": 706}

INPUT: State, in one line, measured apparent KD of K4 kissing-loop reporter of UUUGUAUAGGGAAGGAGCGUGAAUGAUAAUGAAUAUAGUGAUGUUAUAUAUAAGAAAGAAUCACAGGUAGGUCGCCCGGAGGAGG [SSArgB.J]
OUTPUT: 1350

INPUT: State, in one line, measured apparent KD of K4 kissing-loop reporter of AAAUAGGUGUGCGAUACCAGCCGGAGUGAUGUUCCGUGUUGUACUGGCUGCACCUACGCCGGCCCUUGGCAGCGUGCUCCAUUUA [Enonin]
OUTPUT: 263

INPUT: State, in one line, measured apparent KD of K4 kissing-loop reporter of GGUAGCAUGGCGGCCGCCACUAACAACCUCACCUGCGGCUCGAUCGAGUGAUGUUCGAACGCAAUUAGGACCGGGCCAUGCUACC
OUTPUT: 143

INPUT: State, in one line, measured apparent KD of K4 kissing-loop reporter of ACGUGCACCAGUGAUGUUGGAAAAUAUGAAGGAGCGGGUGAAAACCCAGGUAGGUCGCAUAAUAGCACGAGCCACGAAAGUGGCA
OUTPUT: 128

INPUT: State, in one line, measured apparent KD of K4 kissing-loop reporter of AUGGUGGAGGAGUGAUGUUCUUGGAGUAGGUAGGAUAUGAGUGAUGUUAGAAGGAUCGGAGUGAUGUUCCAGGUGGUUGUGUUGU [KL-SSFMN-A2]
OUTPUT: 453

INPUT: State, in one line, measured apparent KD of K4 kissing-loop reporter of AGUAGUUGGACGGCCGCCACUAGAACGCCUUUGCCAAAGGCAGAGGACUAGAGUGAUGUUCUAGCUAGGACCGGGUCCAACUACA [Omei KL Tryp B SS A v4]
OUTPUT: 127

INPUT: State, in one line, measured apparent KD of K4 kissing-loop reporter of GCGCGUGUUAAAGGAUAUAGCAGGUGAUACAAGAAAGUGAGUGAUGUUUAUGUAGAUGAUGAUAUGUUAGAAGGUUAACACGCGC [abcdefghijklmnopqr]
OUTPUT: 688

###

# System: K4 kissing-loop RNA reporter
# assay.info: apparent KD of K4 kissing-loop reporter; higher = weaker reporter binding
# experimental.setup: Eterna round: R107; input ligand: none
recorded.metric: apparent KD of K4 kissing-loop reporter
Write the numeric value and follow it with the unit.

{"seq": "AGAGGUCCCAGUGAUGUUGGUGCGUUUGGUCGAGGACCGGUACGGCCGCCACUCGUUCAUAGUAAGCCCUCUUUAGUGUUUCUAA [theeternabot_sameState_KL_Trp_A_9]", "apparent KD of K4 kissing-loop reporter": "0.428 µM"}
{"seq": "AGGUCACCACUACAGUGAUGUUGUAGGGAGCAGGAUAUGCAGAAAUGCAGAAGGGCUCGCUCCCGGUGACCGAAUGAAACAUUCA [Omei KL FMN A SS A v6]", "apparent KD of K4 kissing-loop reporter": "0.318 µM"}

As a next step, examine the sequence that follows.
INPUT: Recall the reported apparent KD of K4 kissing-loop reporter of ACGUAGUUCUAGGAUACCAGCCAAGGCGCAGGACAAAAGUCCUGCGUCGCCAGUGAUGUUGGCCCUUGGCAGCCUAGAACUACGA [Omei KL Theo B Exc B v12] on K4 kissing-loop RNA reporter and write it down.
OUTPUT: 0.304 µM

###

# Tested on: MS2 coat protein
# assay.info: apparent KD of MS2 coat protein; designed switch direction (-1 OFF switch, 1 ON switch): -1; higher = weaker reporter binding
# experimental.setup: input ligand: FMN 200 uM
recorded.metric: apparent KD of MS2 coat protein (nM)
// note: answer is a bare numeric in nM

{"seq": "UAUUCGCAAGCGAGAUCCCACAUGAGGAUCACCCAUGUGCUCGUCUUAUAAGGUACUGUGACGAUAGUCACGGUACC [Mat - Sensor, turn-off var - Eli Mod - D81] (Eterna round: R97, puzzle: Sensor, turn-off variant 1)", "apparent KD of MS2 coat protein, nM": 16.7}

INPUT: State, in one line, measured apparent KD of MS2 coat protein of UCGCGCCUAGGAUAUAUAAGGACUUUCUAGUAUGUUGCGAAACAUGAGGAUCACCCAUGUAGAAGGAGGUAGUG [Eternabot (L2) Solution 89] (Eterna round: R97, puzzle: Exclusion 2)
OUTPUT: 222

INPUT: State, in one line, measured apparent KD of MS2 coat protein of GGCACACAUGAGGAUCACCCAUGUGAGGAUAUGAGGCGAUCGUCGAUAGACGAUAGCCUUAGAAGGCACAUGCC [Mat - Exclusion 1 - Eli Mod - D11] (Eterna round: R97, puzzle: Exclusion 1)
OUTPUT: 45.2

INPUT: State, in one line, measured apparent KD of MS2 coat protein of UGACAGGCUAGACGAACAAACAUGAGGAUCACCCAUGUCAUUCCAUGUCUGCGUCAUAAGUAGAUGCUCGUAUAUCG [Eternabot (Original) Solution 33] (Eterna round: R97, puzzle: Sensor, turn-off variant 1)
OUTPUT: 16.6

###

# System: K4 kissing-loop RNA reporter;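 note: bound reporter read as fluorescence of individual clusters on recovered sequencing chips by microscopy, with normalized cluster intensities fitted with a binding model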
# assay.info: apparent KD of K4 kissing-loop reporter; higher = weaker reporter binding
# experimental.setup: Eterna round: R107; input ligand: theophylline 20 uM
Some sequences, each annotated with its measured apparent KD of K4 kissing-loop reporter.
// note: answer is a bare numeric in nM

{"seq": "AGAGUUAUGCGAGGAUAUGCGGUUAGUACUCAAAGAGUACUAACGCAGAGUGAUGUUCUGUGAAACGCAGAAGGUGCAUAACUCA [Omei KL FMN B SS B v3]", "apparent KD of K4 kissing-loop reporter, nM": 238}
{"seq": "UCGGCGUACGGGCGGGUAGUGAUGUUGCUCCGAGGACCGGUACGGCCGCCACUCGAGGUACCAGUUCAUAGAACCUGGCACAUCA [theeternabot_exclusion_KL_Trp_A_23]", "apparent KD of K4 kissing-loop reporter, nM": 261}

INPUT: State, in one line, measured apparent KD of K4 kissing-loop reporter of UCUAGUUCUACGGCCGCCACUAUCGAGCACGGGUAUUAGUGAUGUUGAGGUCGUGUCUCCCUCCCUAGGACCGGGUAGAUCUUAG [theeternabot_sameState_KL_Trp_B_4]
OUTPUT: 629

INPUT: State, in one line, measured apparent KD of K4 kissing-loop reporter of AAUGUAUUCCACAUGAGUGAUGUUCAUGUGCGAGGACCGGUACGGCCGCCACUCGCAGUUGUGAUCAGUUCUGAAUACAUUAAUG [KL-XTryp-A3]
OUTPUT: 235

INPUT: State, in one line, measured apparent KD of K4 kissing-loop reporter of CCAUCGCUAUUCGAUACCAGUCUACGUAGGAAACUACGUCUGCAAAGGAGUGAUGUUCCAGACCCUUGGCAGCGAAUAGUGAUGG [Theophylline B K4 5]
OUTPUT: 589

INPUT: State, in one line, measured apparent KD of K4 kissing-loop reporter of GGUAGCAUGGCGGCCGCCACUGAGGCCCUAUACGAGUCCUAAACAACCUAGUGAUGUUAGGAGUCCAGGACCGGGCCAUGCUACC
OUTPUT: 262

###

# Test system: MS2 coat protein
# assay.info: apparent KD of MS2 coat protein; designed switch direction (-1 OFF switch, 1 ON switch): 1; higher = weaker reporter binding
# experimental.setup: Eterna round: R95; input ligand: FMN 200 uM
recorded.metric: apparent KD of MS2 coat protein (nM)
// note: answer is a bare numeric in nM

{"seq": "ACGCAGCUGGGUGAGGAUAUUGGUGGUACAACAUGAGGAUCACCCAUGUCCGAAGCUCGGACCUCCGAGAAGGCGCCCGGCUGCG [Soinraesar Omei Mod 4] (puzzle: Same State 2)", "tested.on": "MS2 coat protein", "unit.annotation": "nM", "apparent KD of MS2 coat protein": 39.7}
{"seq": "GGUCCAGCCUGAGCUGGACGGUAGUAUGUACAUGAGGAUCACCCAUGUCAUGUAGAAGUUACUUGUUCGUCUUGAAC [SENSOR #1] (puzzle: Sensor for hsa-mir-208a)", "tested.on": "MS2 coat protein", "unit.annotation": "nM", "apparent KD of MS2 coat protein": 15.1}
{"seq": "GGAGCCGGCACUGAGGAUAUUCAUAUUAAAACAUGAGGAUCACCCAUGUAGGCCAGAAGGCCUUGGGAGAAGGCGGAUCGGCUCG [Xeonanis - 14] (puzzle: Same State 2)", "tested.on": "MS2 coat protein", "unit.annotation": "nM", "apparent KD of MS2 coat protein": 78.7}
{"seq": "GGUCCAGCCUGAGCUGGACAAAAGUAUGUACAUGAGGAUCACCCAUGUCAUGUACAAGCUUUUUGCUCGUCUUAAAA [JL mod - D87 - 9] (puzzle: Sensor for hsa-mir-208a)", "tested.on": "MS2 coat protein", "unit.annotation": "nM", "apparent KD of MS2 coat protein": 430}
{"seq": "AGCAAUCUAUCUCAGGAUAUCAUGUCAAAGACAUGAGGAUCACCCAUGUACCAGGAAACUGGUUAUGAGAAGGGAGAUAGAUUGA [Mat - Same State 2 - Mod - D29] (puzzle: Same State 2)", "tested.on": "MS2 coat protein", "unit.annotation": "nM", "apparent KD of MS2 coat protein": 154}
{"seq": "ACAAGCUUUUUGCUCAUCUUAUGUCCGAAACAUGAGGAUCACCCAUGUAUAGAUUAUGUGUUGUUGUAGAUACAAGA [JR_SHM208A_Sub063] (puzzle: Sensor for hsa-mir-208a)", "tested.on": "MS2 coat protein", "unit.annotation": "nM", "apparent KD of MS2 coat protein": 22.7}

INPUT: Recall the reported apparent KD of MS2 coat protein of GAGGGAUGAGCGUAGGAUAUAGGAGAAGUGACAUGAGGAUCACCCAUGUGGUAUGAGGGAUGAUUCUAGAAGGACGCGGUAGAAG [JR_SS2_Sub063] (puzzle: Same State 2) on MS2 coat protein and write it down.
OUTPUT: 149

INPUT: Recall the reported apparent KD of MS2 coat protein of CGUAGGUAGCUGGAGGAUAUCUGAGUGGUAACAUGAGGAUCACCCAUGUGAUGUGAGGAACAUGAGGAGAAGGCUAGCUGCCUGC [JL-ss2-3.13 JL mod] (puzzle: Same State 2) on MS2 coat protein and write it down.
OUTPUT: 21.4

INPUT: Recall the reported apparent KD of MS2 coat protein of UCUUGGUUUUUGCUCGUUUUUUGUGUUGAACAUGAGGAUCACCCAUGUAUUGUACGGUCCAGUUUAAUAAUGGUCCA [JMF 6] (puzzle: Sensor for hsa-mir-208a) on MS2 coat protein and write it down.
OUTPUT: 25.9

INPUT: Recall the reported apparent KD of MS2 coat protein of GGUCCAGCCUGAGCUGGACAAAAGCAUGUACAUGAGGAUCACCCAUGUUCAUGUACAAGCUUUUUGCUCGUCUUACA [salish99_208a_r3_084] (puzzle: Sensor for hsa-mir-208a) on MS2 coat protein and write it down.
OUTPUT: 485
